assayOverview: Opioid receptor kappa agonist potency was determined in vitro using rabbit vas deferens(LVD) preparation
Would you kindly list IC50 for each of these molecules?

# per-item lookup of IC50; items listed below
1. O=C1CCN(C(=O)Cc2ccc(Cl)c(Cl)c2)C(CN2CCCC2)C1 (stereo not given)
2. O=C(Cc1ccc(Cl)c(Cl)c1)N1CCC2(CC1CN1CCCC1)SCCS2 (stereo not given)
3. O=C(Cc1ccc(Cl)c(Cl)c1)N1CC[C@H](O)C[C@H]1CN1CCCC1
4. CC1(CN2CCCC2)CCCCN1C(=O)Cc1ccc(Cl)c(Cl)c1 (stereo not given)
5. COC(=O)/C=C1\CCN(CC2CCCCN2C(=O)Cc2ccc(Cl)c(Cl)c2)C1 (stereo not given)

1. 46 nM
2. 5 nM
3. 1400 nM
4. > 10000 nM
5. 1020 nM
